Biological target: ABCG2 (Homo sapiens, UniProt Q9UNQ0)
Assay: Bioluminescence imaging (BLI) assay in HEK293/ABCG2/fLuc cells
Settings: Table 2; HEK293/ABCG2/fLuc cells, compound approximately 17 μM, ~50 μg/mL D-luciferin, 40 min time point
property: Fold (BLI enhancement, S/B ratio over control) (fold)
Just the number in fold, nothing appended.

Please review the following examples before continuing.
CSc1ccc2c(c1)N(CCC1CCCCN1C)c1ccccc1S2 (centres unmarked)
2.5
O=C(Nc1ccccc1)c1ccccc1O [salicylanilide]
2.2
O=C(O)CCCc1ccccc1
2.1
COc1ccc2cc3[n+](cc2c1OC)CCc1cc2c(cc1-3)OCO2.O=S(=O)([O-])O [berberine bisulfate]
2.2
C[C@]12CC[C@@H]3c4ccc(O)cc4CC[C@H]3[C@@H]1CC[C@@H]2O
4.2
CC(=O)[C@@]1(O)CC[C@H]2[C@@H]3C=C(Cl)C4=CC(=O)[C@@H]5C[C@@H]5[C@]4(C)[C@H]3CC[C@@]21C
2.0
CC[C@H]1/C=C/C=C/C[C@@H](C)[C@H](O)[C@@](C)(O)C(=O)[C@@H](C)[C@H](O)[C@@H](C)C(=O)[C@@H](C)[C@H](O)[C@@H](C)/C=C/C(=O)O[C@@H]2[C@H](C)[C@H](CC1)O[C@]1(CC[C@H](C)[C@H](C[C@@H](C)O)O1)[C@H]2C
5.0

Alright, here's another molecule for you.
**Q:** Lab note: need Fold (BLI enhancement, S/B ratio over control) with ABCG2 (Homo sapiens, UniProt Q9UNQ0) for entry C=C(C)[C@]12C[C@@H](C)[C@@]34O[C@](Cc5ccccc5)(O[C@@H]1[C@@H]3C=C(COC(=O)Cc1ccc(O)c(OC)c1)C[C@]1(O)C(=O)C(C)=C[C@@H]41)O2 , please look it up.
**A:** 4.2

* * *

compounds and their reported Fold (BLI enhancement, S/B ratio over control)
Biological target: ABCG2 (Homo sapiens, UniProt Q9UNQ0)
Experiment: Bioluminescence imaging (BLI) assay in HEK293/ABCG2/fLuc cells
Conditions: human, 40 min, 17 μM
Where a name gives a salt, the structure may show the parent alone.

Previously resolved entries follow.
COC(=O)C1=C(C)NC(C)=C(C(=O)OCC(C)C)C1c1ccccc1[N+](=O)[O-] (centres unmarked) [nisoldipine]
3.2 fold
O=c1[nH]c(=O)n([C@H]2C[C@H](O)[C@@H](CO)O2)cc1F [floxuridine]
2.2 fold
CCc1c2c(nc3ccc(OC(=O)N4CCC(N5CCCCC5)CC4)cc13)-c1cc3c(c(=O)n1C2)COC(=O)[C@]3(O)CC [irinotecan hydrochloride]
4.0 fold
CC(=O)SCC(Cc1ccccc1)C(=O)NCC(=O)OCc1ccccc1 (centres unmarked) [racecadotril]
2.0 fold
O=c1cc(-c2ccccc2)oc2cc(O)cc(O)c12 [chrysin]
2.3 fold
COc1cc(O)c2c(c1)C(=O)c1cc(C)cc(O)c1C2=O [physcion]
2.1 fold

**Q:** Entry under review: Cc1nccn1CC1CCc2c(c3ccccc3n2C)C1=O (centres unmarked) [ondansetron hydrochloride] . Reported Fold (BLI enhancement, S/B ratio over control)?
**A:** 2.7 fold

**Q:** Would you mind telling me what Fold (BLI enhancement, S/B ratio over control) value was observed for Cc1c(-c2cnccn2)ssc1=S [oltipraz] ?
**A:** 3.2 fold

**Q:** Can you look up the measured Fold (BLI enhancement, S/B ratio over control) of Cc1cc(O)c2c(c1)C(=O)c1cc(O)cc(O)c1C2=O [emodin] for me?
**A:** 6.4 fold

**Q:** For the compound CC(=O)[C@H]1CC[C@H]2[C@@H]3C[C@H](C)C4=CC(=O)CC[C@]4(C)[C@H]3[C@@H](O)C[C@]12C [medrysone] , what Fold (BLI enhancement, S/B ratio over control) is on record?
**A:** 2.3 fold

**Q:** I would be grateful if you could share the reported Fold (BLI enhancement, S/B ratio over control) for CCCc1nc2c(C)cc(-c3nc4ccccc4n3C)cc2n1Cc1ccc(-c2ccccc2C(=O)O)cc1 [telmisartan] .
**A:** 2.0 fold

**Q:** Look up Fold (BLI enhancement, S/B ratio over control): CCOC(=O)Nc1ccc2c(c1)N(C(=O)CCN1CCOCC1)c1ccccc1S2 [moricizine hydrochloride]
**A:** 2.3 fold

* * *

# key: entry, value: Fold (BLI enhancement, S/B ratio over control)
Target: ABCG2 (Homo sapiens)
Test: Bioluminescence imaging (BLI) assay in HEK293/ABCG2/fLuc cells
Settings: human, 40 min, 17 μM
Structures can show the parent of a compound that is named as a salt.
Field format: number, assumed fold, no unit text.

COC(=O)Nc1nc2ccc([S+]([O-])c3ccccc3)cc2[nH]1 (stereo not shown)
2.1

**Q:** Entry O=c1[nH]c2ccccc2n1C1CCN(CCCC(c2ccc(F)cc2)c2ccc(F)cc2)CC1 [pimozide] : reported Fold (BLI enhancement, S/B ratio over control) = ?
**A:** 2.0

**Q:** Name the reported Fold (BLI enhancement, S/B ratio over control) value associated with the molecule COc1ccc(/C=C/C(=O)c2ccc(OC)cc2OC)cc1
**A:** 2.8

**Q:** Could you tell me which Fold (BLI enhancement, S/B ratio over control) is on file for CC(C)(C)NC(=O)[C@@H]1C[C@@H]2CCCC[C@@H]2CN1C[C@@H](O)[C@H](Cc1ccccc1)NC(=O)[C@H](CC(N)=O)NC(=O)c1ccc2ccccc2n1 [saquinavir mesylate] ?
**A:** 4.9

* * *

Measured Fold (BLI enhancement, S/B ratio over control) by item
Biological target: ABCG2 (Homo sapiens)
Sequence (Q9UNQ0 1-655): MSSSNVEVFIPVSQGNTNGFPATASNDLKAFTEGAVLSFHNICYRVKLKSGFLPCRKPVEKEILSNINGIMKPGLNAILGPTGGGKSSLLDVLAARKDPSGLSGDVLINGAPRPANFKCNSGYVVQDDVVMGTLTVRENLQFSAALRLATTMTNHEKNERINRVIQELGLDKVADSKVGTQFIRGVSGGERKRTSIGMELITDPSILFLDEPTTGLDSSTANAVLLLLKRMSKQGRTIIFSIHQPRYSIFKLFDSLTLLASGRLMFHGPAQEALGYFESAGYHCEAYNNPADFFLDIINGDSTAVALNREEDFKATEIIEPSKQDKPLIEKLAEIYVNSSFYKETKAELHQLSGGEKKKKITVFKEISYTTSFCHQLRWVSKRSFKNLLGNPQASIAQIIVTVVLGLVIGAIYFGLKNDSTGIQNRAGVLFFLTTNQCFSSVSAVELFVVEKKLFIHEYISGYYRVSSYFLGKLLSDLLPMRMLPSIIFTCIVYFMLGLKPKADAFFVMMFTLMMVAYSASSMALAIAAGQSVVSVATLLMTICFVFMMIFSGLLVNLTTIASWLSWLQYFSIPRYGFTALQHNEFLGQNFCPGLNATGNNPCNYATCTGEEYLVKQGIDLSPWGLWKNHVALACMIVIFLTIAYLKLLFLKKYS
Assay: Bioluminescence imaging (BLI) assay in HEK293/ABCG2/fLuc cells
Conditions: human, 40 min, 17 μM
Counter-ions that a name gives are not always drawn.
Numbers only; they are read as fold.

CCC(C)(C)C(=O)O[C@H]1C[C@@H](C)C=C2C=C[C@H](C)[C@H](CC[C@@H]3C[C@@H](O)CC(=O)O3)[C@H]21
2.7

**Q:** State the recorded Fold (BLI enhancement, S/B ratio over control) for this entry: CCCCC(CC)CNC(=N)NC(=N)NCCCCCCNC(=N)NC(=N)NCC(CC)CCCC (stereo not shown) [alexidine hydrochloride]
**A:** 3.1

**Q:** Reported Fold (BLI enhancement, S/B ratio over control) for CC(C)C(=O)Nc1ccc([N+](=O)[O-])c(C(F)(F)F)c1 [flutamide] : what is it?
**A:** 6.1

**Q:** What does the record list as Fold (BLI enhancement, S/B ratio over control) for Cc1c(-c2ccccc2)oc2c(C(=O)OCCN3CCCCC3)cccc2c1=O [flavoxate hydrochloride] ?
**A:** 11.2

* * *

Molecular target: ABCG2 (Homo sapiens, UniProt Q9UNQ0)
Sequence (Q9UNQ0 1-655): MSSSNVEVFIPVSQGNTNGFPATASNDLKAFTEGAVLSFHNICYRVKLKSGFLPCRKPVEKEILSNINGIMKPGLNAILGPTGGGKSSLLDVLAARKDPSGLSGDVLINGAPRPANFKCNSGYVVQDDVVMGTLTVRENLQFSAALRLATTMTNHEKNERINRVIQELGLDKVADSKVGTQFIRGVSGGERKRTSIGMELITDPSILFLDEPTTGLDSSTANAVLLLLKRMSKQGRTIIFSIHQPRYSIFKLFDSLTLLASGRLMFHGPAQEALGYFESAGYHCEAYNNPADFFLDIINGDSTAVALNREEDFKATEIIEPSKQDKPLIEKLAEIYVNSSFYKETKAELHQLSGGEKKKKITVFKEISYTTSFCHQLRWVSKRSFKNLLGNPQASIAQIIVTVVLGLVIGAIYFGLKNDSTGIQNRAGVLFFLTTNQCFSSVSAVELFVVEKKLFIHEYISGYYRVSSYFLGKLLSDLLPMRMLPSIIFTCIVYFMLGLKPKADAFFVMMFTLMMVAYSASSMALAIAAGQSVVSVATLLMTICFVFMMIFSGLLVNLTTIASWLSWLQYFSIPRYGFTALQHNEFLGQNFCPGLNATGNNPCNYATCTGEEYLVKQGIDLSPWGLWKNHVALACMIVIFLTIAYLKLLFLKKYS
Assay: Bioluminescence imaging (BLI) assay in HEK293/ABCG2/fLuc cells
Conditions: read-out: IC50 as an ABCG2 inhibitor (BLI); same assay, using the 30 min data
property: pIC50
pIC50 here is simply -log10 of the concentration when that concentration is written in mol/L.

**Q:** Query: pIC50; subject: COc1ccc2c3c([nH]c2c1)[C@H](C=C(C)C)N1C(=O)[C@@H]2CCCN2C(=O)[C@@H]1C3 [FTC, Fumitremorgin C]
**A:** 5.18
